- protocol.notes: Volume of distribution at steady state in Sprague-Dawley rat at 3 mg/kg, iv administered as single dose by LC-MS/MS analysis
- Assay type: ADME, organism-based
- condition.description: in vivo, read-out: Vdss

{"columns": ["compound", "Vd (L/kg)"],
 "data": [
  ["CC(C)OC(=O)N1CCC(n2nnc3cc(-c4cc(F)c(C(=O)N5CCCC5)cc4F)ncc32)CC1", 0.557]
]}

* * *

- protocol.notes: Thermodynamic solubility of the compound in pH 6.8 phosphate buffer after 24 hrs by HPLC analysis
- Format: physicochemical
- condition.description: read-out: Therm_solubility
Entries and their measured solubility thermodynamic at 24 h follow.
measured.endpoint: solubility thermodynamic at 24 h (µM)

{"columns": ["compound", "measured.endpoint", "inequality.sign", "assay.value"],
 "data": [
  ["CCc1cnc(N2CCC(n3nnc4cc(-c5ccc(S(C)(=O)=O)c(F)c5)ncc43)CC2)nc1", "solubility thermodynamic at 24 h", "<", 0.15],
  ["CC(C)OC(=O)N1CCC(n2nnc3cc(-c4cc(F)c(C(=O)N5CCC5)cc4F)ncc32)CC1", "solubility thermodynamic at 24 h", "=", 2.7],
  ["CCNC(=O)c1cc(C)c(-c2cc3nnn(C4CCN(c5ncc(CC)cn5)CC4)c3cn2)c(C)c1", "solubility thermodynamic at 24 h", "=", 1.86],
  ["CCNC(=O)c1c(C)cc(-c2cc3nnn(C4CCN(c5ncc(CC)cn5)CC4)c3cn2)cc1C", "solubility thermodynamic at 24 h", "=", 5.01],
  ["CCc1cnc(N2CCC(n3nnc4cc(-c5ccc(S(C)(=O)=O)cc5F)ncc43)CC2)nc1", "solubility thermodynamic at 24 h", "<", 0.12],
  ["CCc1cnc(N2CCC(n3ncc4cc(-c5ccc(S(C)(=O)=O)cc5)ccc43)CC2)nc1", "solubility thermodynamic at 24 h", "<", 0.11],
  ["CCNC(=O)c1ccc(-c2cc3nnn(C4CCN(c5ncc(CC)cn5)CC4)c3cn2)c(C(F)(F)F)c1", "solubility thermodynamic at 24 h", "=", 1.2],
  ["CCNC(=O)c1ccc(-c2cc3nnn(C4CCN(c5ncc(CC)cn5)CC4)c3cn2)c(C)c1", "solubility thermodynamic at 24 h", "<", 0.09],
  ["CC(C)OC(=O)N1CCC(n2nnc3cc(-c4cc(F)c(C(=O)N5CCCC5)cc4F)ncc32)CC1", "solubility thermodynamic at 24 h", "=", 15.9]
]}

* * *

- protocol.notes: Permeability of the compound at pH 6.2 by PAMPA
- Format: physicochemical
- condition.description: read-out: permeability
measured.endpoint: Papp (×10⁻⁶ cm/s)

{"columns": ["compound", "units.symbol", "assay.value"],
 "data": [
  ["CC(C)OC(=O)N1CCC(n2nnc3cc(-c4cc(F)c(C(=O)N5CCCC5)cc4F)ncc32)CC1", "×10⁻⁶ cm/s", 97]
]}

* * *

- protocol.notes: Half life in Sprague-Dawley rat at 3 mg/kg, iv administered as single dose by LC-MS/MS analysis
- Assay type: ADME, organism-based
- condition.description: in vivo

{"columns": ["compound", "units.symbol", "half-life"],
 "data": [
  ["CC(C)OC(=O)N1CCC(n2nnc3cc(-c4cc(F)c(C(=O)N5CCCC5)cc4F)ncc32)CC1", "min", 14.5]
]}

* * *

- assay.system: Glucose-dependent insulinotropic receptor (Homo sapiens, UniProt Q8TDV5)
- Sequence (Q8TDV5 whole entry): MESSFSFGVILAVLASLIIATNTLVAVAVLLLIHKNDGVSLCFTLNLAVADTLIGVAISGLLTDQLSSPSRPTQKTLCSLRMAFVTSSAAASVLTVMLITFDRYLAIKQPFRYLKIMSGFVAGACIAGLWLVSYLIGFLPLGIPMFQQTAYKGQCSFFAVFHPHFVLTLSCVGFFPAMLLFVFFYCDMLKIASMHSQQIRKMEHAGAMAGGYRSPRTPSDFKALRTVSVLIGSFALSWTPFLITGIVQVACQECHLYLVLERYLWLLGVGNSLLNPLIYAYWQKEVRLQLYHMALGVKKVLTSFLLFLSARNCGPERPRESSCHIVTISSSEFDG
- protocol.notes: Agonist activity at human GPR119 expressed in Flp-In-T-Rex-HEK293 cells assessed as stimulation of cAMP level measured after 30 mins by HTRF assay
- Assay type: functional, cell-based
measured.endpoint: log10(EC50) (log10 of the value in nM)

{"columns": ["compound", "assay.system", "assay.value"],
 "data": [
  ["CCNC(=O)c1ccc(-c2cc3nnn(C4CCN(c5ncc(CC)cn5)CC4)c3cn2)cc1C(F)(F)F", "Glucose-dependent insulinotropic receptor (Homo sapiens, UniProt Q8TDV5)", 1.59],
  ["CCNC(=O)c1cc(F)c(-c2cc3nnn(C4CCN(C(=O)OC(C)C)CC4)c3cn2)cc1F", "Glucose-dependent insulinotropic receptor (Homo sapiens, UniProt Q8TDV5)", 1.57],
  ["CC(C)OC(=O)N1CCC(n2nnc3cc(-c4cc(F)c(C(=O)N5CCCC5)cc4F)ncc32)CC1", "Glucose-dependent insulinotropic receptor (Homo sapiens, UniProt Q8TDV5)", 1.81],
  ["CC(C)OC(=O)N1CCC(n2nnc3cc(-c4cc(F)c(C(=O)N5CCC5)cc4F)ncc32)CC1", "Glucose-dependent insulinotropic receptor (Homo sapiens, UniProt Q8TDV5)", 1.79],
  ["CCc1cnc(N2CCC(n3ncc4cc(-c5ccc(S(C)(=O)=O)cc5)ccc43)CC2)nc1", "Glucose-dependent insulinotropic receptor (Homo sapiens, UniProt Q8TDV5)", 1.15],
  ["CC(C)NC(=O)c1cc(F)c(-c2cc3nnn(C4CCN(C(=O)OC(C)C)CC4)c3cn2)cc1F", "Glucose-dependent insulinotropic receptor (Homo sapiens, UniProt Q8TDV5)", 1.52],
  ["CCNC(=O)c1ccc(-c2cc3nnn(C4CCN(c5ncc(CC)cn5)CC4)c3cn2)c(F)c1", "Glucose-dependent insulinotropic receptor (Homo sapiens, UniProt Q8TDV5)", 1.18],
  ["CCNC(=O)c1ccc(-c2cc3nnn(C4CCN(c5ncc(CC)cn5)CC4)c3cn2)cc1Cl", "Glucose-dependent insulinotropic receptor (Homo sapiens, UniProt Q8TDV5)", 1.26],
  ["CCNC(=O)c1ccc(-c2cc3nnn(C4CCN(c5ncc(CC)cn5)CC4)c3cn2)c(Cl)c1", "Glucose-dependent insulinotropic receptor (Homo sapiens, UniProt Q8TDV5)", 1.11],
  ["CCc1cnc(N2CCC(n3ncc4cc(-c5ccc(S(C)(=O)=O)cc5)c(C)cc43)CC2)nc1", "Glucose-dependent insulinotropic receptor (Homo sapiens, UniProt Q8TDV5)", 1.85],
  ["CCNC(=O)c1cc(F)c(-c2cc3nnn(C4CCN(c5ncc(CC)cn5)CC4)c3cn2)cc1F", "Glucose-dependent insulinotropic receptor (Homo sapiens, UniProt Q8TDV5)", 0.30],
  ["CCc1cnc(N2CCC(n3nnc4cc(-c5ccc(S(C)(=O)=O)cc5)ncc43)CC2)nc1", "Glucose-dependent insulinotropic receptor (Homo sapiens, UniProt Q8TDV5)", 1.32],
  ["CCc1cnc(N2CCC(n3nnc4cc(-c5ccc(S(C)(=O)=O)cc5)ccc43)CC2)nc1", "Glucose-dependent insulinotropic receptor (Homo sapiens, UniProt Q8TDV5)", 1.49],
  ["CCNC(=O)c1ccc(-c2cc3nnn(C4CCN(c5ncc(CC)cn5)CC4)c3cn2)c(C(F)(F)F)c1", "Glucose-dependent insulinotropic receptor (Homo sapiens, UniProt Q8TDV5)", 1.78],
  ["CCNC(=O)c1ccc(-c2cc3nnn(C4CCN(c5ncc(CC)cn5)CC4)c3cn2)c(F)c1F", "Glucose-dependent insulinotropic receptor (Homo sapiens, UniProt Q8TDV5)", 1.00],
  ["CCNC(=O)c1ccc(-c2cc3nnn(C4CCN(c5ncc(CC)cn5)CC4)c3cn2)cc1C", "Glucose-dependent insulinotropic receptor (Homo sapiens, UniProt Q8TDV5)", 1.26],
  ["CCc1cnc(N2CCC(n3nnc4cc(-c5ccc(S(C)(=O)=O)cc5F)ncc43)CC2)nc1", "Glucose-dependent insulinotropic receptor (Homo sapiens, UniProt Q8TDV5)", 0.85],
  ["CCc1cnc(N2CCC(n3nnc4cc(-c5ccc(S(C)(=O)=O)c(F)c5)ncc43)CC2)nc1", "Glucose-dependent insulinotropic receptor (Homo sapiens, UniProt Q8TDV5)", 0.95]
]}

* * *

- protocol.notes: Clearance in Sprague-Dawley rat at 3 mg/kg, iv administered as single dose by LC-MS/MS analysis
- Format: ADME, organism-based
- condition.description: in vivo

{"columns": ["compound", "clearance, mL/min/kg"],
 "data": [
  ["CC(C)OC(=O)N1CCC(n2nnc3cc(-c4cc(F)c(C(=O)N5CCCC5)cc4F)ncc32)CC1", 27.2]
]}

* * *

Listed next: entries and their corresponding solubility thermodynamic at 24 h.
- protocol.notes: Thermodynamic solubility of the compound in pH 6.8 phosphate buffer after 24 hrs by HPLC analysis
- Assay type: physicochemical
- condition.description: read-out: Therm_solubility

{"columns": ["compound", "inequality.sign", "solubility thermodynamic at 24 h [µM]"],
 "data": [
  ["CCNC(=O)c1ccc(-c2cc3nnn(C4CCN(c5ncc(CC)cn5)CC4)c3cn2)c(Cl)c1", "=", 0.24],
  ["CCc1cnc(N2CCC(n3nnc4cc(-c5ccc(S(C)(=O)=O)cc5)ccc43)CC2)nc1", "<", 0.13],
  ["CC(C)COC(=O)N1CCC(n2ncc3cc(-c4ccc(S(C)(=O)=O)cc4)ncc32)CC1", "=", 1.18],
  ["CCNC(=O)c1cc(F)c(-c2cc3nnn(C4CCN(c5ncc(CC)cn5)CC4)c3cn2)cc1F", "=", 0.24],
  ["CCc1cnc(N2CCC(n3ncc4cc(-c5ccc(S(C)(=O)=O)cc5)ncc43)CC2)nc1", "=", 0.26],
  ["CCc1cnc(N2CCC(n3nnc4cc(-c5ccc(S(C)(=O)=O)cc5)ncc43)CC2)nc1", "=", 0.28],
  ["CCNC(=O)c1cc(F)c(-c2cc3nnn(C4CCN(C(=O)OC(C)C)CC4)c3cn2)cc1F", "=", 5.5],
  ["CCNC(=O)c1ccc(-c2cc3nnn(C4CCN(c5ncc(CC)cn5)CC4)c3cn2)cc1C", "=", 1.79],
  ["CCNC(=O)c1cc(F)c(-c2cc3cnn(C4CCN(C(=O)OC(C)C)CC4)c3cn2)cc1F", "=", 2.84]
]}
